Reference source for all entries: patent US20250270343A1

Parameter: Kd. Scope: all listed entries.
Target: T1, soluble cynomolgus GPNMB (recombinant extracellular domain) (cynomolgus, UniProt Q14956 23-499 (human entry), limits assumed)
T1 chain: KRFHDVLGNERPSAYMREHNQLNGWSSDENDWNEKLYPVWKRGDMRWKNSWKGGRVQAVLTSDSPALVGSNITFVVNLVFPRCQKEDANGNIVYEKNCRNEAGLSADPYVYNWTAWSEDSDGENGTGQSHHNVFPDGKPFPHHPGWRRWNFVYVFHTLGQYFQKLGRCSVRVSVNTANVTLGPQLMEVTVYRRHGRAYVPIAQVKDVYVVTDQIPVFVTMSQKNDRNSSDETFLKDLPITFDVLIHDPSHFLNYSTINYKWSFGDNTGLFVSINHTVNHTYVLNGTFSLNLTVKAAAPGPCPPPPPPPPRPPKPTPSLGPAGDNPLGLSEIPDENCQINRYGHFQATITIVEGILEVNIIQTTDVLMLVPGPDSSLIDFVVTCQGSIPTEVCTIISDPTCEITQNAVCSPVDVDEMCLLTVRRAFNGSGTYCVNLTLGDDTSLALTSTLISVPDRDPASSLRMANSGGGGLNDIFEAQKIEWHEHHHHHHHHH
Assay: SPR Biacore, IgG captured
Give a bare numeral; the unit nM is implied.

# annotated cases, reported Kd shown
• anti-GPNMB antibody GPN-86 (antibody, V domains shown) VH: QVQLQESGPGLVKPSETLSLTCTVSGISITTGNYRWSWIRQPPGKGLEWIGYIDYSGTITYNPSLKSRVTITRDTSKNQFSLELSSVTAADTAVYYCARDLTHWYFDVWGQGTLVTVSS VL: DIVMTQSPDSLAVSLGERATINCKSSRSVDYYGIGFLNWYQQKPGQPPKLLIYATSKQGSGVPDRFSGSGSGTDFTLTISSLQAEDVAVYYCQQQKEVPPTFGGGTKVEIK = 5.5
• anti-GPNMB antibody GPN-94 (antibody, V domains shown) VH: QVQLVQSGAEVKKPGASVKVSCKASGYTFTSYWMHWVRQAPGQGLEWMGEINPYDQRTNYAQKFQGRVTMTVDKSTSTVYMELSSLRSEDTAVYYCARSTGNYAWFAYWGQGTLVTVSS VL: DIVMTQSPDSLAVSLGERATINCKTSQDVSPSLAWYQQKPGQPPKLLIYSASKRYTGVPDRFSGSGSGTDFTLTISSLQAEDVAVYYCQQHYSIPLTFGGGTKVEIK = 6.5

Moving on to another binder below.
Could you tell me which Kd is on file for anti-GPNMB antibody GPN-92 (antibody, V domains shown, humanized GPN-08) VH: QVQLVQSGAEVKKPGASVKVSCKASGYTFTSYWMHWVRQAPGQGLEWMGEINPSDGRTNYAQKFQGRVTMTVDKSTSTVYMELSSLRSEDTAVYYCARSGGNYAWFAYWGQGTLVTVSS VL: DIVMTQSPDSLAVSLGERATINCKASQDVSPSLAWYQQKPGQPPKLLIYSASYRYTGVPDRFSGSGSGTDFTLTISSLQAEDVAVYYCQQHYSIPLTFGGGTKVEIK ?
67.8
